- assay-summary: Quantitative High-Throughput drug screen in 47 multiple myeloma cell lines against the NCATS MIPE library collection: MM1R_ATCC cell viability assay (AID 1918981); further: potency means the concentration at half of the fitted maximal effect; nearly all actives have a fitted effect of over 35% in size
- settings: MM1R multiple myeloma cells, CellTiter-Glo viability, 48 h; series mostly up to 45.8 µM
Inconclusive results are not listed. Calls of active or inactive are those of the source. The call rests on the fitted dose curve; in most records, active means well fitted cell-killing curve with a large enough effect; inconclusive means small, poorly fitted or top-dose-only effect, or effect the other way; inactive means no such curve, though single readings can be large or run the other way.
Assign Potency to each entry below.

What Potency value was documented for this compound, O=C(CO)N1CCC(c2[nH]nc(-c3ccc(Cl)cc3)c2-c2ccncn2)CC1 ? 0.662 µM (active)

What Potency value was documented for this compound, CCC(C)SSc1ncc[nH]1 (stereo unspecified) ? 5.26 µM (active)

What Potency value was documented for this compound, NCc1c[nH]c(=S)n1[C@H]1CCc2c(F)cc(F)cc2C1 ? 16.6 µM (active)

What Potency value was documented for this compound, Cc1cc2c(cc1C1(c3ccc(C(=O)O)cn3)CC1)C(C)(C)CCC2(C)C ? 6.62 µM (active)

What Potency value was documented for this compound, CC1=C[C@@H]2[C@@H]([C@@H](O)C[C@@]3(C)[C@H]2C[C@@H](C)[C@]3(O)C(=O)CO)[C@@]2(C)Cc3cnn(-c4ccccc4)c3C=C12 ? 20.9 µM (active)

###

- target-under-test: Furin (Homo sapiens)
- assay-summary: Furin counterscreen qHTS for Zika virus inhibitors (AID 1347149); further: nearly all actives have a fitted effect of over 70% in size; further: potency means the concentration at half of the fitted maximal effect
- settings: furin enzymatic counterscreen, fluorogenic substrate; series mostly up to 57.5 µM
Inconclusive results are not listed. Active and inactive are the calls of the source. Calls come from the whole dose curve; as a rule, active = well fitted inhibition curve with a large enough effect; inconclusive = small, poorly fitted or top-dose-only effect; inactive = no such curve, though single readings can be large or run the other way.
parameter: Potency

Field: example entries. Status: answers known.
CCCCC[C@H](O)C=C[C@H]1[C@H](O)CC(=O)[C@H]1CCCCCCC(=O)O	inactive
COc1cc(Cl)cn2c(-c3cccc(NC4CNC4)n3)cnc12	27.1 µM (active)
OC(c1cc(C(F)(F)F)nc2c(C(F)(F)F)cccc12)C1CCCCN1 (stereo unspecified)	0.961 µM (active)
CCOC(=O)[C@H](CCc1ccccc1)N[C@@H](C)C(=O)N1CCCC1C(=O)O (stereo partly specified)	inactive
O=c1cc(-c2ccc(O)c(O)c2)oc2cc(O)cc(O)c12	inactive

Here is another molecule to look at.
What Potency value was documented for this molecule, CC(C)c1onc(-c2c(Cl)cccc2Cl)c1COc1ccc(C=Cc2cccc(C(=O)O)c2)c(Cl)c1 ? 30.4 µM (active)

###

- assay-summary: qHTS drug screen for cell cycle checkpoint inhibitors in PARPi-resistant BRCA-mutant ovarian cancer cell lines. (AID 1963452)
- settings: PEO1/OlaR viability, CellTiter-Glo luminescence, 96 h; measured here: PEO4 Z-AUC; stronger effect = lower value
parameter: Z-AUC

What Z-AUC value was documented for this compound, Cn1cnc(-c2cc3nccc(Oc4ccc(NC(=S)NC(=O)Cc5ccccc5)cc4F)c3s2)c1 ? 0.301

What Z-AUC value was documented for this compound, Nc1ccc(-c2ccc3ncc4ccc(=O)n(-c5cccc(C(F)(F)F)c5)c4c3c2)cn1 ? -1.55

What Z-AUC value was documented for this compound, NC1(C(=O)N[C@@H](CCO)c2ccc(Cl)cc2)CCN(c2ncnc3[nH]ccc23)CC1 ? 0.532

What Z-AUC value was documented for this compound, CC[C@H](C=C[C@@H](C)[C@H]1CC[C@H]2[C@@H]3CC=C4C[C@@H](O)CC[C@]4(C)[C@@H]3CC[C@]12C)C(C)C ? 1.84

###

Assign remaining proliferation (% of control), lower = more inhibition to each entry below.
- assay-summary: qHTS profiling for inhibitors of Plasmodium falciparum (HB3) proliferation (AID 743324);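 further: 100% = DMSO vehicle wells and 0% = artemisinin-treated control wells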
- settings: Plasmodium falciparum HB3 blood-stage proliferation; at 28.7 µM (top of the series) unless noted
Report the figure in % without appending any unit label.

What remaining proliferation (% of control), lower = more inhibition value was documented for this compound, CCCCCCCCCCCCCC(=O)N[C@H](CO)[C@H](O)c1ccc([N+](=O)[O-])cc1 ? 73.2

What remaining proliferation (% of control), lower = more inhibition value was documented for this compound, CNC(=O)c1cc(Oc2ccc(NC(=O)Nc3ccc(Cl)c(C(F)(F)F)c3)c(F)c2)ccn1 ? 1.38

What remaining proliferation (% of control), lower = more inhibition value was documented for this compound, CCc1cc(-c2n[nH]c(C)c2-c2ccc3c(c2)OCCO3)c(O)cc1O ? 74.6

What remaining proliferation (% of control), lower = more inhibition value was documented for this compound, CCCCc1ccc(NS(=O)(=O)c2ccc(C)c(C(=O)N3CCN(c4cccc(C)c4C)CC3)c2)cc1 ? 92.7

What remaining proliferation (% of control), lower = more inhibition value was documented for this compound, Cc1c(C(=O)Nc2ccc(N3C[C@@H](C)O[C@@H](C)C3)nc2)cccc1-c1ccc(OC(F)(F)F)cc1 ? 55.5

What remaining proliferation (% of control), lower = more inhibition value was documented for this compound, Nc1ccc(-c2ccc3ncc4ccc(=O)n(-c5cccc(C(F)(F)F)c5)c4c3c2)cn1 ? -1.3

What remaining proliferation (% of control), lower = more inhibition value was documented for this compound, CN(C)CCN(C)C(=O)c1ccc(NC(=O)Nc2ccc(-c3nc(N4CCOCC4)c4ccn(CC(F)(F)F)c4n3)cc2)cc1 ? -1

What remaining proliferation (% of control), lower = more inhibition value was documented for this compound, C[C@@H](O[C@H]1OCCN(Cc2n[nH]c(=O)[nH]2)[C@@H]1c1ccc(F)cc1)c1cc(C(F)(F)F)cc(C(F)(F)F)c1 ? 9.06

What remaining proliferation (% of control), lower = more inhibition value was documented for this compound, CC(C)CNc1ccnc(NCc2csc(-c3ccccc3)n2)n1 ? -0.95

What remaining proliferation (% of control), lower = more inhibition value was documented for this compound, CC(C)C[C@@H](C(=O)N[C@H](C(=O)OC1CCCC1)c1ccccc1)[C@H](O)C(=O)NO ? 11

What remaining proliferation (% of control), lower = more inhibition value was documented for this compound, CC1=C[C@@H]2[C@@H]([C@@H](O)C[C@@]3(C)[C@H]2C[C@@H](C)[C@]3(O)C(=O)CO)[C@@]2(C)Cc3cnn(-c4ccccc4)c3C=C12 ? 0.0764

What remaining proliferation (% of control), lower = more inhibition value was documented for this compound, CCC(=O)N1CCN(c2ccc(-n3c(=O)ccc4cnc5ccc(-c6cnc7ccccc7c6)cc5c43)cc2C(F)(F)F)CC1 ? 2.49

What remaining proliferation (% of control), lower = more inhibition value was documented for this compound, O=C(O)Cc1cccc(OCCCN(Cc2cccc(C(F)(F)F)c2Cl)CC(c2ccccc2)c2ccccc2)c1 ? 5.3

What remaining proliferation (% of control), lower = more inhibition value was documented for this compound, CN(C)CC[C@H](CSc1ccccc1)Nc1ccc(S(=O)(=O)NC(=O)c2ccc(N3CCN(Cc4ccccc4-c4ccc(Cl)cc4)CC3)cc2)cc1[N+](=O)[O-] ? 41.4

What remaining proliferation (% of control), lower = more inhibition value was documented for this compound, CN1C(=O)C(Cc2c[nH]c3ccccc23)NC1=S (stereo not given) ? 73.5

What remaining proliferation (% of control), lower = more inhibition value was documented for this compound, COc1c(C)cnc(Cn2cnc3c(Cl)nc(N)nc32)c1C ? 9.05

What remaining proliferation (% of control), lower = more inhibition value was documented for this compound, CC(C)Oc1cc(Nc2nc(N[C@@H](C)c3ccc(F)cn3)ncc2Cl)[nH]n1 ? 3.28

What remaining proliferation (% of control), lower = more inhibition value was documented for this compound, O=C(Nc1cccc(Cl)c1)Nc1ncc(CCNc2ncnc3ccsc23)s1 ? -0.601

What remaining proliferation (% of control), lower = more inhibition value was documented for this compound, C=C[C@@H]1CN2CCC1C[C@@H]2C(O)c1ccnc2ccc(OC)cc12 (stereo not given in full) ? 2.91

What remaining proliferation (% of control), lower = more inhibition value was documented for this compound, CN(C)CCCNC(=O)c1ccc(-c2cc(O)c3ncccc3c2)cc1 ? 5.15

What remaining proliferation (% of control), lower = more inhibition value was documented for this compound, Cc1cccc(Nc2nc(N[C@@H]3CCCC[C@H]3N)ncc2C(N)=O)c1 ? 0.632

What remaining proliferation (% of control), lower = more inhibition value was documented for this compound, O=C1C(CCC(O)c2ccc(F)cc2)C(c2ccc(O)cc2)N1c1ccc(F)cc1 (stereo not given) ? 64.8

What remaining proliferation (% of control), lower = more inhibition value was documented for this compound, CC(C)C[C@H](NC(=O)c1cc2ccccc2s1)C(=O)N1CCN(C(=O)[C@H](CO)NS(=O)(=O)c2ccc(Cl)cc2Cl)CC1 ? 5.88

What remaining proliferation (% of control), lower = more inhibition value was documented for this compound, COc1cc2nccc(Oc3ccc(NC(=O)Nc4cc(C)on4)c(Cl)c3)c2cc1OC ? 11.5

What remaining proliferation (% of control), lower = more inhibition value was documented for this compound, Clc1ccc(COC(Cn2ccnc2)c2ccc(Cl)cc2Cl)c(Cl)c1 (stereo not given) ? -0.548

What remaining proliferation (% of control), lower = more inhibition value was documented for this compound, COc1ccc(CCN(C)CCCOc2ccc(S(=O)(=O)c3[nH]c4ccccc4c3C(C)C)cc2)cc1OC ? -1.05

What remaining proliferation (% of control), lower = more inhibition value was documented for this compound, COc1nc(C)cnc1NS(=O)(=O)c1cccnc1-c1ccc(-c2nnco2)cc1 ? 91.9

What remaining proliferation (% of control), lower = more inhibition value was documented for this compound, OCCn1cc(-c2ccc3c(c2)CCC3=NO)c(-c2ccncc2)n1 ? 73.4

What remaining proliferation (% of control), lower = more inhibition value was documented for this compound, CC(O)=C(C#N)C(=O)Nc1ccc(C(F)(F)F)cc1 ? 98.9

What remaining proliferation (% of control), lower = more inhibition value was documented for this compound, NC(=O)c1ccc(N(C(N)=O)c2c(F)cccc2F)nc1-c1ccc(F)cc1F ? 85.6

What remaining proliferation (% of control), lower = more inhibition value was documented for this compound, CC(=O)Nc1cccc(-n2c(=O)n(C3CC3)c(=O)c3c(Nc4ccc(I)cc4F)n(C)c(=O)c(C)c32)c1 ? -0.298

What remaining proliferation (% of control), lower = more inhibition value was documented for this compound, Cc1ccc(NC(=O)c2ccc(CN3CCN(C)CC3)cc2)cc1Nc1nc(-c2cccnc2)cs1 ? 4.39

What remaining proliferation (% of control), lower = more inhibition value was documented for this compound, Cc1csc(-c2nnc(Nc3ccc(Oc4ncccc4-c4ccnc(N)n4)cc3)c3ccccc23)c1 ? 51.2

What remaining proliferation (% of control), lower = more inhibition value was documented for this compound, Cn1cc(-c2ccc3nnc(Sc4ccc5ncccc5c4)n3n2)cn1 ? 72.7

What remaining proliferation (% of control), lower = more inhibition value was documented for this compound, CCN(CC)CCCCNc1nc2cc(Cl)c(Cl)cc2nc1-c1ccc(-c2cccs2)s1 ? 4.08
